# credit: patent US20190083615A1

tested.target: T1, human LAG3-huFc recombinant protein (human, UniProt P18627 23-450, limits assumed, biotinylated in the runs with humanized and chimeric antibodies (Example 11))
T1 construct: also called human LAG3-Fc; huLAG3-huFc; not shown: human Fc
T1 sequence: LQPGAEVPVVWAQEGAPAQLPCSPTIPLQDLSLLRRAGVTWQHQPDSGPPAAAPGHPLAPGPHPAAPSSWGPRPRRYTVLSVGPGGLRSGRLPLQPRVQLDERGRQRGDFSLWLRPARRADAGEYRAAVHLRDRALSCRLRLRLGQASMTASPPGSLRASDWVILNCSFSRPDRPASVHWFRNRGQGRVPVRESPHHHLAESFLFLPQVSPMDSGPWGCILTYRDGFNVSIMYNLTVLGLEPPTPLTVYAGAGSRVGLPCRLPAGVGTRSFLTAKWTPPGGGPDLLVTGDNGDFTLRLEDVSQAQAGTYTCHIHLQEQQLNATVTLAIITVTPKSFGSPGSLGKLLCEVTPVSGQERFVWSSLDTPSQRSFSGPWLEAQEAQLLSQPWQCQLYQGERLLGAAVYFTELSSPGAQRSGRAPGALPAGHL
measurement.protocol: flow cytometry, blockade of human LAG3-huFc (2 ug/ml) binding to MHC class II on Daudi cells

binder: mouse anti-human LAG3 antibody LB148.11C9.1C1 (antibody, mouse IgG1, V domains shown, also called Lag3 clone 11C9) VH: QVQLQQPGAELVMPGASAKMSCKASGYTLTDYWMHWVKQRPGQGLEWIGAIDISDSYSSYNQKFKGKATLTVDESSSTAYMQLTSLTSEDSAVYYCARSPFYNSRGGNYFDYWGQGTTLTVSS VL: DIQMTQTTSSLSASLGDRVTISCRASQDISNYLNWYQQKPDGTVKLLIYYTSRLHSGVPSRFSGSGSGTDYSLTISNLEQEDIATYFCQQGDTLPPWTFGGGTKLEIK
unit.string: nM
IC50: 2

binder: mouse anti-human LAG3 antibody LB148.19E8.G1.1A1 (antibody, mouse IgG2b, V domains shown, also called Lag3 clone 19E8) VH: QIRLQQSGPELVKPGASVKISCKASGSSFTDYYINWVKQKPGQGLEWIGWIYPGSGNSIYNENFKAKATLTVDTSSSTAYMHLSSLTSEDTAVYFCAREADYDDALDYWGQGTSVTVSS VL: HILLTQSPAILSVSPGERVSFSCRASQSIGTSIHWYQQRTNGSPRLLIKYASESISGIPSRFSGSGSGTDFTLSINSVESEDIADYYCQQSNSWPTYTFGGGTKLEIK
unit.string: nM
IC50: 2.8

binder: mouse anti-human LAG3 antibody LB148.4A10.1H1 (antibody, mouse IgG2a, V domains shown, also called Lag3 clone 4A10) VH: EVQLLQSGAELVRSGASVKLSCTASGFNIEDYYMHWMKQRPEQGLEWIGWIDPVNGDTEYAPKFQGKATMTADTSSNTAYLHLNSLTSEDTAVYYCNFYDGYLFAFWGQGTLVTVSA VL: DIVLTQAAPSVPVTPGESVSISCRSSKSLLHSDGNTYLYWLLQRPGQSPQLLIYRMSNLASGVPDRFSGSGSGTVFTLRISRLEAEDVGIYYCMQHLEYPFTFGGGTKLEIK
unit.string: nM
IC50: 1.9

binder: mouse anti-human LAG3 antibody LB145.22D2.E1.1D1 (antibody, mouse IgG2a, V domains shown, also called Lag3 clone 22D2; LB145.22D2.E1.D1) VH: EVLLLQSGPELVKPGTSVKIPCKASGYTFTDYNVDWVKQRHGKGLEWIGDINPNNGGTIYSQKFKGKATLTVDKSSSTAFMELRSLTSEDTAVYFCARNYRWFGAMDHWGQGTSVTVSS VL: DIVLTQSPASLAVSPGQRATISCKASQSLDYEGDSDMNWYQQKPGQPPRLLISGASNLESGIPARFSGSGSGTDFTVNIHPVEEEDAATYYCQQSTEDPRTFGGGTKLEIK
unit.string: nM
IC50: 2.1
